Data origin: the supplement of paper PMC9112550

# Tested on: Escherichia coli TOP10;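 also: peptides expressed intracellularly from a pBAD plasmid library in pooled LB shake-flask culture, induced with 0.3% L-arabinose, DNA abundance read by NGS, three biological replicates, DESeq2 with apeglm shrinkage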
# assay.remarks: shrunken log2 fold change of peptide-encoding DNA abundance (4.5 h post-induction vs induction); higher = less antimicrobial activity (less host growth inhibition)
# setup.conditions: time post-induction: 4.5 h; library: site-saturation at positions 5, 18, 19, 20
Records here are stratified by shrunken log2 fold change; strata: bin A = under -0.2, bin B = from -0.2 up to 0.08, bin C = 0.08 and over

• RRIRFRPPRLPRPRPRPTQMPRP = bin C

Categorize the following entry: `RRIRGRPPRLPRPRPRPNEGPRP`
bin B

Now consider `RRIRCRPPRLPRPRPRPRRQPRP` and answer again.
bin C

Request: `RRIRYRPPRLPRPRPRPHQCPRP`
bin B
